IC50 listing for selected compounds.
Molecular target: Epidermal growth factor receptor (Homo sapiens)
Sequence (P00533 whole entry, the tested form may be a part): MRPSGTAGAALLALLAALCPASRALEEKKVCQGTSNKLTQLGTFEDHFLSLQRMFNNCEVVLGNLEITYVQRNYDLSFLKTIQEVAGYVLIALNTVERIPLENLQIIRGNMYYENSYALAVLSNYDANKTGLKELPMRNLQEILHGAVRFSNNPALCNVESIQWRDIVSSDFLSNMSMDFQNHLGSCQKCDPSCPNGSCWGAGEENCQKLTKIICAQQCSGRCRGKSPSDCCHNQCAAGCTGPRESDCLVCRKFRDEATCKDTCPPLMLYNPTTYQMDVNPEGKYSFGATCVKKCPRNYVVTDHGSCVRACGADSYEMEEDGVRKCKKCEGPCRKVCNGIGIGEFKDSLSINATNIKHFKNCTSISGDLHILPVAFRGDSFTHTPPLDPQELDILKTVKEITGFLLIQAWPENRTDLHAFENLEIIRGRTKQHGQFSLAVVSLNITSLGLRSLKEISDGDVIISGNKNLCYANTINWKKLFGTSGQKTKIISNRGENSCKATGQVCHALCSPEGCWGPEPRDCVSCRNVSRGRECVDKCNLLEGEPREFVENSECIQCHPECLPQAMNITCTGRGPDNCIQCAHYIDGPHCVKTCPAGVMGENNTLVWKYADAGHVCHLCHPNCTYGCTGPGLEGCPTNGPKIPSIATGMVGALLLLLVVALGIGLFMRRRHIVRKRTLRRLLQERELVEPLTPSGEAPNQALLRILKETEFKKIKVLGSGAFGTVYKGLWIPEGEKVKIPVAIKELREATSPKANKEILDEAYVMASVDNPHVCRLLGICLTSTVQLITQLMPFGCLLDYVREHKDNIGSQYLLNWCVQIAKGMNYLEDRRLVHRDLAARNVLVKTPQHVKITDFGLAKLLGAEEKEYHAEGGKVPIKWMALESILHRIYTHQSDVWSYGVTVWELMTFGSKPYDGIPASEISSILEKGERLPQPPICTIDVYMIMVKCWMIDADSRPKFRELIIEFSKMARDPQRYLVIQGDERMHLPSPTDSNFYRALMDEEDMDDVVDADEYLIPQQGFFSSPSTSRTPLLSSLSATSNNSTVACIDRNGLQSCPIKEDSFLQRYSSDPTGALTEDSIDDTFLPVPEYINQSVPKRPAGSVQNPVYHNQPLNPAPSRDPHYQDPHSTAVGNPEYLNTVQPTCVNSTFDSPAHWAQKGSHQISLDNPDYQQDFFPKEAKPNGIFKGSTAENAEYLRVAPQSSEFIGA
Assay: Inhibition of wild type recombinant N-terminal GST-tagged human EGFR catalytic domain expressed in Sf9 insect cells using poly-Glu-Tyr (4:1) as substrate after 2 hrs in presence of [gamma-33P]-ATP by filter-binding method

## Task Check the records and state IC50 for N#Cc1ccc(O)c(-c2nc(NCc3cccnc3)c3ccccc3n2)c1
## Result > 50 µM

* * *

Organism: Homo sapiens
Test: Selectivity ratio of IC50 for wild type recombinant N-terminal GST-tagged human EGFR catalytic domain to IC50 for recombinant human EGFR d746-750/T790M/C797S mutant
outcome measure: Ratio IC50

smiles input: N#Cc1ccc(O)c(-c2nc(NCc3cnccn3)c3ccccc3n2)c1
Ratio IC50: > 1000

## Task Respond only with Ratio IC50 recorded for COC(=O)c1ccc(O)c(-c2nc(NCc3cccnc3)c3ccccc3n2)c1
## Result > 1000

## Task Determine from records and report Ratio IC50 for N#Cc1ccc(O)c(-c2nc(NCc3cccnc3)c3ccccc3n2)c1
## Result > 1000

## Task Provide measured Ratio IC50 value, entry: Oc1ccccc1-c1nc(NCc2cccnc2)c2ccccc2n1
## Result 163

Source listed as ChEMBL document CHEMBL4184160.
